assay: resazurin metabolic signal in HepG2 cells – cell-based, resazurin fluorescence, 24 h, PK04 Diversity Set, profiling panel (AID 1172); conditions: HepG2 viability, higher = more signal; note: test concentration not given here
Mark label 1 for z-score under -0.6, label 0 if at or over.

Solved cases below.
* CN1C(=O)C2C=CC(C(O)c3ccc(F)cc3)N(N3CCCCC3)C2C1=O (stereo not drawn) | label 1
* C=CCC(OC(C)=O)[C@@H]1[C@@H](N(Cc2cccc3ccccc23)C(=O)c2ccc(C)cc2)c2cc(OCCCO)ccc2N1C(=O)c1ccc2ccccc2c1 (stereo partly drawn) | label 0
* C=C(COC)/C(=C/C[C@@H](OC(=O)c1ccncc1)c1cccc(OCCO)c1)c1cc(C(=O)OC)ccc1OC | label 0
* COCCOC(=O)N1C(=O)[C@@]2(c3cc(C#Cc4ccc(OC)cc4)ccc31)[C@H](c1ccc(OCCO)cc1)N1[C@H](c3ccccc3)[C@H](c3ccccc3)OC(=O)[C@H]1[C@@H]2C(N)=O | label 1
* [N-]=[N+]=NCc1ccccc1C[C@@]1(C(=O)NCCN2CCOCC2)N=C(c2ccc(OCCCO)cc2)O[C@@H]1c1ccccc1CN=[N+]=[N-] | label 1
* COc1ccc([Si](C)(C)[C@H]2[C@H](CC(=O)N3CCC[C@H]3CO)O[C@@]3(C(=O)N(Cc4ccc(N5C(=O)c6cccc7cccc5c67)cc4)c4ccccc43)[C@@H]2C)cc1 | label 1
* Cc1ccc(S[C@]2(C(=O)O)CC(=O)N(Cc3ccccc3C(F)(F)F)[C@@H]2c2ccc(CO)cc2)cc1 | label 0
* C=CCNC(=O)[C@@H]1[C@H]2C(=O)O[C@H](c3ccccc3)[C@H](c3ccccc3)N2[C@H](c2ccc(O)cc2)[C@@]12C(=O)Nc1ccc(C#CCCO)cc12 | label 0

query: A record lists COCCOC(=O)N1C(=O)[C@@]2(c3cc(C#CCCO)ccc31)[C@H](C(=O)N1CCc3cc(OC)c(OC)cc3C1)[C@H]1C(=O)O[C@H](c3ccccc3)[C@H](c3ccccc3)N1[C@@H]2c1ccc(OCCO)cc1 . Is its z-score below -0.6?
result: label 0

query: Please check: z-score for [N-]=[N+]=NCc1ccccc1[C@H]1OC(c2ccc(OCCCO)cc2)=N[C@@]1(Cc1ccccc1N=[N+]=[N-])C(=O)NCCN1CCOCC1 , strictly under -0.6 or not?
result: label 1
